# key: entry, value: IC50
Tested target: Cyclin-dependent kinase 5/CDK5 activator 1 (Homo sapiens, UniProt Q00535)
Sequence (Q00535 whole entry): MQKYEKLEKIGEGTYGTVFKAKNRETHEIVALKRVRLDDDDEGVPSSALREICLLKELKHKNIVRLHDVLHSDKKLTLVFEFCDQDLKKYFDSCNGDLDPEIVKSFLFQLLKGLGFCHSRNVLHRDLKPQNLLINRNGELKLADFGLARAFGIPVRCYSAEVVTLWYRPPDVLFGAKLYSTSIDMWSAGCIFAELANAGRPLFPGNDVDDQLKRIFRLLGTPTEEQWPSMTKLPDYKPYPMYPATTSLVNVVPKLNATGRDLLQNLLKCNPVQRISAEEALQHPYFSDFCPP
Sequence (Q15078 whole entry, further chain): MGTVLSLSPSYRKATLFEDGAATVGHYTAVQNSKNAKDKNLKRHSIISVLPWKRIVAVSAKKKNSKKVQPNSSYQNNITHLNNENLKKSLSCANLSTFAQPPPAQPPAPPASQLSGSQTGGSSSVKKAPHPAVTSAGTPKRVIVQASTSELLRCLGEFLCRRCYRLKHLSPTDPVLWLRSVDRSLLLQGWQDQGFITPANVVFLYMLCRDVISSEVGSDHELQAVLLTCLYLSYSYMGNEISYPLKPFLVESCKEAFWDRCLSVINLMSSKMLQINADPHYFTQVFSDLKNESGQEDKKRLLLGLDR
Express your answer in µM, writing the number without its unit.

> print(dat)
                        molecule  measured.result
1  COc1ccc2c(-c3ccncc3)c[nH]c2n1                7

Q: Identify the measured IC50 of `COc1ccc2c(c1)[nH]c1c3c(OC)cncc3cc(C#N)c21` for Cyclin-dependent kinase 5/CDK5 activator 1 (Homo sapiens, UniProt Q00535).
Result: 6.4

----------
# key: entry, value: IC50
Tested target: Dual specificity protein kinase CLK4 (Homo sapiens)
Sequence (Q9HAZ1 whole entry): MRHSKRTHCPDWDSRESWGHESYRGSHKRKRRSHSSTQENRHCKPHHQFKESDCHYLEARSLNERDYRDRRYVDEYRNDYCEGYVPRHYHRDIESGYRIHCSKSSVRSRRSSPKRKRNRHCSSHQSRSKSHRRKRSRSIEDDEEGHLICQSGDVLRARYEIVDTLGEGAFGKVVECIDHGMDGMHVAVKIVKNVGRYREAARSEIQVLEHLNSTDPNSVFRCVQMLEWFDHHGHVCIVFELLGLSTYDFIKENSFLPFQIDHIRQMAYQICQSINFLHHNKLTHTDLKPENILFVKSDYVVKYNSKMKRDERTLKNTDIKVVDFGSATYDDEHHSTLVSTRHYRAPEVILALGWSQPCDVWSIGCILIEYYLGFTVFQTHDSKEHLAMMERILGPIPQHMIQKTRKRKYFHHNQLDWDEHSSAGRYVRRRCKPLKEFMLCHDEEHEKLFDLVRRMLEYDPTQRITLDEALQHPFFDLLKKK
Assay: Inhibition of GST-tagged human recombinant CLK4 expressed in Escherichia coli using RS peptide as substrate incubated for 30 mins in presence of [gamma-33 P] ATP by liquid scintillation counting analysis

> print(dat)
                  structure.smiles.string  measured.result
1  COc1ccc2c(/C(C#N)=C/c3cccnc3)c[nH]c2n1            71 nM
2      N#Cc1cc2cnccc2c2[nH]c3ccc(F)cc3c12           200 nM
3         N#Cc1cc2ccncc2c2[nH]c3ccccc3c12           180 nM

Q: Dear colleague, I am looking for the recorded IC50 of the following compound: `COc1cccc2[nH]c3c4ccncc4cc(C#N)c3c12`
Result: 100 nM

Q: Dear colleague, I am looking for the recorded IC50 of the following compound: `COc1ccc2c(-c3ccncc3)c[nH]c2n1`
Result: 110 nM

Q: Dear colleague, I am looking for the recorded IC50 of the following compound: `COc1cccc2c1[nH]c1c3ccncc3cc(C#N)c21`
Result: 40 nM

----------
Tested target: Dual specificity tyrosine-phosphorylation-regulated kinase 1B (Homo sapiens)
Sequence (Q9Y463 whole entry): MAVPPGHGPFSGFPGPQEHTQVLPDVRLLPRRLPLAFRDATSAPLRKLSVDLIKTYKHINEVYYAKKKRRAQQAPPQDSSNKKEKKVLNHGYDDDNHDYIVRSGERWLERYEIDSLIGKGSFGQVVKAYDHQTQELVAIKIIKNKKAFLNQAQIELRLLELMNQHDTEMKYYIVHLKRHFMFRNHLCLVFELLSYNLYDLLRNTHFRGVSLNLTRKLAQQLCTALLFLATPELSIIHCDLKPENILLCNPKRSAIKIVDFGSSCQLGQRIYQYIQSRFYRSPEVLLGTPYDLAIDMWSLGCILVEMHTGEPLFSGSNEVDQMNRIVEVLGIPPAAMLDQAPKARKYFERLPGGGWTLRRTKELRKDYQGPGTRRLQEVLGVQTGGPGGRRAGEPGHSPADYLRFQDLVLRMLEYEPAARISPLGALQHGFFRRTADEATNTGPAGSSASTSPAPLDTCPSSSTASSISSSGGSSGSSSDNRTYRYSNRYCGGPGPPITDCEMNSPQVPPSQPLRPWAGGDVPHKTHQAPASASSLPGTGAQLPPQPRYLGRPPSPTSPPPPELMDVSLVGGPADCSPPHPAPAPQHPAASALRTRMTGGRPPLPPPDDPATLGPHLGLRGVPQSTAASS
Assay: Inhibition of GST-tagged human recombinant DYRK1B expressed in Escherichia coli using RS peptide as substrate incubated for 30 mins in presence of [gamma-33 P] ATP by liquid scintillation counting analysis
# key: entry, value: IC50
Express your answer in nM, writing the number without its unit.

Sample records with IC50:
> print(dat)
                    structure.smiles.string                             tested.target  uom  measured.result
1  COc1ccc2c(c1)[nH]c1c3c(OC)cncc3cc(C#N)c21  Dual specificity tyrosine-phosphorylation-regulated kinase 1B (Homo sapiens)   nM               42
2           N#Cc1cc2ccncc2c2[nH]c3ccccc3c12  Dual specificity tyrosine-phosphorylation-regulated kinase 1B (Homo sapiens)   nM              260
3       COc1ccc2[nH]c3c4ccncc4cc(C#N)c3c2c1  Dual specificity tyrosine-phosphorylation-regulated kinase 1B (Homo sapiens)   nM              220
4  COc1ccc2c(c1)[nH]c1c3ccncc3cc(CNC(C)=O)c21  Dual specificity tyrosine-phosphorylation-regulated kinase 1B (Homo sapiens)   nM              900

Please look at the following molecule next.
Q: Identify the measured IC50 of `COc1cccc2c1[nH]c1c3ccncc3cc(C(N)=O)c21` for Dual specificity tyrosine-phosphorylation-regulated kinase 1B (Homo sapiens).
Result: 460

----------
Tested target: Glycogen synthase kinase-3 (Sus scrofa, UniProt B2LUN4+I6LNT8)
Assay: Inhibition of porcine brain GSK3alpha/beta using GS-1 as substrate incubated for 30 mins in presence of [gamma-33 P] ATP by liquid scintillation counting analysis
Measured attribute: IC50 (nM)
Express your answer in nM, writing the number without its unit.

> print(dat)
                    structure.smiles.string  measured.result
1  COc1ccc2c(c1)[nH]c1c3c(OC)cncc3cc(C#N)c21              140
2           N#Cc1cc2cnccc2c2[nH]c3ncccc3c12             1800

Please look at the following molecule next.
Q: Dear colleague, I am looking for the recorded IC50 of the following molecule: `COc1cccc2c1[nH]c1c3ccncc3cc(C#N)c21`
Result: 2000

----------
Tested target: Dual specificity protein kinase CLK3 (Homo sapiens)
Sequence (P49761 whole entry): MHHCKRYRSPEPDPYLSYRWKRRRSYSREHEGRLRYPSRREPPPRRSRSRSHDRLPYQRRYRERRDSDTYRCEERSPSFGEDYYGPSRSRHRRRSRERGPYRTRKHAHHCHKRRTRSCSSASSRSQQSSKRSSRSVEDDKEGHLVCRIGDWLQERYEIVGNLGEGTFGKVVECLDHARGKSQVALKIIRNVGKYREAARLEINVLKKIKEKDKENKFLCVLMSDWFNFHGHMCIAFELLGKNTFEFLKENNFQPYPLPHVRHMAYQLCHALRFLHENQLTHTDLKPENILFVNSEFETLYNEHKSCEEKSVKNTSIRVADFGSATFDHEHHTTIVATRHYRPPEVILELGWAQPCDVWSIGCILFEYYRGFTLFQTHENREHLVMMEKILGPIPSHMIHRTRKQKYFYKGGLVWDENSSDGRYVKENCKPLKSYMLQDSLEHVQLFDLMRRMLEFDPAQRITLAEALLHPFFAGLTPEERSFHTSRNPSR
Assay: Inhibition of GST-tagged human recombinant CLK3 expressed in Escherichia coli using RS peptide as substrate incubated for 30 mins in presence of [gamma-33 P] ATP by liquid scintillation counting analysis
# key: entry, value: IC50
Express your answer in nM, writing the number without its unit.

Sample records with IC50:
> print(dat)
                    structure.smiles.string  measured.result
1           N#Cc1cc2ccncc2c2[nH]c3ccccc3c12             1800
2  COc1ccc2c(c1)[nH]c1c3c(OC)cncc3cc(C#N)c21              320

Please look at the following molecule next.
Q: Identify the measured IC50 of `COc1cccc2c1[nH]c1c3ccncc3cc(C#N)c21` for Dual specificity protein kinase CLK3 (Homo sapiens).
Result: 180

----------
Tested target: Dual specificity protein kinase CLK1 (Homo sapiens)
Sequence (P49759 whole entry): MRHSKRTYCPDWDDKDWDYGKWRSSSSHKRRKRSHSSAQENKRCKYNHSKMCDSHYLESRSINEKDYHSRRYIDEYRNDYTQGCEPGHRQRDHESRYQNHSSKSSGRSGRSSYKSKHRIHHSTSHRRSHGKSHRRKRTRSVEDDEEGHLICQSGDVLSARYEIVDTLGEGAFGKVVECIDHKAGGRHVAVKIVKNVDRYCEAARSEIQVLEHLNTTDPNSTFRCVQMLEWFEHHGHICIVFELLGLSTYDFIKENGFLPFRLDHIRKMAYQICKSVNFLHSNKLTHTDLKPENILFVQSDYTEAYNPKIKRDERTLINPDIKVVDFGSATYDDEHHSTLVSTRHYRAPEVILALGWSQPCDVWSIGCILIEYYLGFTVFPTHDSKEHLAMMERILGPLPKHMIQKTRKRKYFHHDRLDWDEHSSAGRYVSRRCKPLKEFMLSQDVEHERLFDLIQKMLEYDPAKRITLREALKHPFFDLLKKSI
Assay: Inhibition of GST-tagged human recombinant CLK1 expressed in Escherichia coli using RS peptide as substrate incubated for 30 mins in presence of [gamma-33 P] ATP by liquid scintillation counting analysis
Measured attribute: pIC50
Reminder that pIC50 means the negative base-10 logarithm of the concentration expressed in mol/L.

Sample records with pIC50:
> print(dat)
                  structure.smiles.string                             tested.target  measured.result
1   N#C/C(=C\c1cccnc1)c1c[nH]c2ccc(F)cc12  Dual specificity protein kinase CLK1 (Homo sapiens)             5.77
2     COc1cccc2c1[nH]c1c3ccncc3cc(C#N)c21  Dual specificity protein kinase CLK1 (Homo sapiens)             7.39
3  N#C/C(=C\c1cccnc1)c1c[nH]c2ccc(Cl)cc12  Dual specificity protein kinase CLK1 (Homo sapiens)             5.70

Q: Identify the measured pIC50 of `COc1ccc2[nH]cc(/C(C#N)=C/c3cnccc3C)c2c1` for Dual specificity protein kinase CLK1 (Homo sapiens).
Result: 5.40

Q: Identify the measured pIC50 of `COc1ccc2c(CC#N)c(-c3ccncc3)[nH]c2n1` for Dual specificity protein kinase CLK1 (Homo sapiens).
Result: 5.96

Q: Identify the measured pIC50 of `COc1ccc2c(/C(C#N)=C/c3cccnc3)c[nH]c2c1` for Dual specificity protein kinase CLK1 (Homo sapiens).
Result: 5.89

----------
Tested target: Dual specificity tyrosine-phosphorylation-regulated kinase 1A (Homo sapiens, UniProt Q13627)
Assay: Inhibition of GST-tagged human recombinant DYRK1A expressed in Escherichia coli using RS peptide as substrate incubated for 30 mins in presence of [gamma-33 P] ATP by liquid scintillation counting analysis
# key: entry, value: IC50
Express your answer in µM, writing the number without its unit.

Sample records with IC50:
> print(dat)
                                   compound  measured.attribute  measured.result
1  COc1ccc2[nH]c3c(=O)[nH]c(-c4cccnc4)c(C#N)c3c2c1                IC50              4.3
2       COc1ccc2c(CC#N)c(-c3ccncc3)[nH]c2n1                IC50              7.3
3  COc1ccc2c(c1)[nH]c1c3c(OC)cncc3cc(C#N)c21                IC50            0.018
4       COc1cccc2[nH]c3c4ccncc4cc(C#N)c3c12                IC50             0.85
5    N#C/C(=C\c1cccnc1)c1c[nH]c2ccc(Cl)cc12                IC50              3.3

Q: Dear colleague, I am looking for the recorded IC50 of the following compound: `COc1ccc2c(/C(C#N)=C/c3cccnc3)c[nH]c2n1`
Result: 0.18

Q: Dear colleague, I am looking for the recorded IC50 of the following compound: COc1ccc2[nH]cc3c2c1C(C)NC(c1cccnc1)=C3C#N (centres undefined)
Result: 5

Q: Dear colleague, I am looking for the recorded IC50 of the following compound: `COc1ccc2c(-c3ccncc3)c[nH]c2n1`
Result: 5.8

Q: Dear colleague, I am looking for the recorded IC50 of the following compound: `N#Cc1cc2cnccc2c2[nH]c3ncccc3c12`
Result: 0.44

Q: Dear colleague, I am looking for the recorded IC50 of the following compound: `N#C/C(=C\c1cccnc1)c1c[nH]c2ncccc12`
Result: 0.021

Q: Dear colleague, I am looking for the recorded IC50 of the following compound: `N#Cc1cc2ncccc2c2[nH]c3ccccc3c12`
Result: 10

----------
# key: entry, value: inhibition at 72 h, 1 µM
Assay: Cytotoxicity against human KB cells assessed as growth inhibition at 1 uM after 72 hrs by MTS assay
Type: toxicity, cell-based
Run parameters: KB cells, read-out: GI
Express your answer in %, writing the number without its unit.

Sample records with inhibition at 72 h, 1 µM:
> print(dat)
                 structure.smiles.string  measured.result
1  COc1ccc2c(c1)[nH]c1c3ccncc3cc(C#N)c21               64
2    COc1cccc2[nH]c3c4ccncc4cc(C#N)c3c12               13
3     N#C/C(=C\c1cccnc1)c1c[nH]c2ncccc12               29

Please look at the following compound next.
Q: Dear colleague, I am looking for the recorded inhibition at 72 h, 1 µM of the following compound: `COc1ccc2c(c1)[nH]c1c3c(OC)cncc3cc(C#N)c21`
Result: 38

Ref: ChEMBL document CHEMBL3875174
